Data provenance: patent US20250230155A1

- SYSTEM: human mAChR M4 (Homo sapiens, UniProt P08173)
- Construct: expressed in transfected cells
- ASSAY_DETAILS: mAChR M4 cell-based functional assay (calcium mobilization, CHO-K1 hM4-Gqi5 cells)
- PARTICULARS: CHO-K1, % ACh maximum at 30 μM; human M4
OBSERVABLE: Emax at 30 µM (%)

>  <COMPOUND>
Cc1cnc2c(c1)CN(c1nnc(C(=O)NCc3ccncc3C)c(C)c1C)CC2 [Example 472]

>  <OBSERVABLE>
Emax at 30 µM

>  <TEST_RESULT>
99

$$$$
>  <COMPOUND>
Cc1cc(C#N)nnc1N1CCc2ncc(N3CCOc4ncccc43)cc2C1 [Example 391]

>  <OBSERVABLE>
Emax at 30 µM

>  <TEST_RESULT>
89

$$$$
>  <COMPOUND>
Cc1cc(C#N)cnc1N1CCc2ncc(-n3ccnc3)cc2C1 [Example 343]

>  <OBSERVABLE>
Emax at 30 µM

>  <TEST_RESULT>
97

$$$$

(P) [2H]C([2H])(NC(=O)c1cc(C)c(N2CCc3ncc(N4CCCn5nccc54)cc3C2)nn1)c1ccncc1 [Example 509]
(Q) Cc1nn(C)cc1-c1cnc2c(c1)CN(c1nc(C(F)(F)F)nc(Cl)c1C)CC2 [compound 245]
Query string: Lab log: flag the item ( P or Q ) with the smaller Emax at 30 µM figure. Return value: the label identifying the chosen record.
Result string: Q
(Q: 56%, P: 104%)

---

- SYSTEM: human mAChR M4 (Homo sapiens, UniProt P08173)
- Construct: expressed in transfected cells
- Sequence (P08173 1-479): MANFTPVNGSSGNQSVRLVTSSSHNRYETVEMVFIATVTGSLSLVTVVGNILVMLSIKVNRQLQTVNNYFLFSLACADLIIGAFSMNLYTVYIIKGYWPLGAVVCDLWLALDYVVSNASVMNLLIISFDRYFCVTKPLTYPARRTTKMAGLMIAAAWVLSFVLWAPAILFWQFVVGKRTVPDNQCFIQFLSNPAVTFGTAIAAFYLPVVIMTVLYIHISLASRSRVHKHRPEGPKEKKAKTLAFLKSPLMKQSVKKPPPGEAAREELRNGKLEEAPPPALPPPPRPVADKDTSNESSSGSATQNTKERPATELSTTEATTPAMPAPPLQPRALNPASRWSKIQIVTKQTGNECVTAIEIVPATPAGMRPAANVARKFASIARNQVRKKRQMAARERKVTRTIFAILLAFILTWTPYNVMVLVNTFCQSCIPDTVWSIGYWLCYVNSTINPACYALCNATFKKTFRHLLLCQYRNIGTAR
- ASSAY_DETAILS: mAChR M4 cell-based functional assay (calcium mobilization, CHO-K1 hM4-Gqi5 cells)
- PARTICULARS: positive allosteric modulator activity, increase in the EC20 acetylcholine response, CHO-K1 hM4-Gqi5 cells; read-out: Human M4 EC50
OBSERVABLE: EC50 (nM)

Some molecules with recorded EC50:
>  <MOLECULE>
Cc1cc(C#N)cnc1N1CCc2ncc(OCCOC3CCCC3)cc2C1

>  <UNIT_TEXT>
nM

>  <EC50>
897

$$$$
>  <MOLECULE>
Cc1cc(C#N)nnc1N1CCc2ncc(-c3ccnn3C)cc2C1

>  <UNIT_TEXT>
nM

>  <EC50>
1080

$$$$

(P) Cc1cc(C#N)nnc1N1CCc2ncc(N3CCCn4nccc43)cc2C1
(Q) Cc1nc(C)c(C)c(N2CCc3ncc(Nc4cccnc4F)cc3C2)n1
(R) Cc1cc(C(=O)NCc2cncs2)cnc1N1CCc2ncccc2C1
Query string: Please give the order of these molecules when sorted by EC50, largest value leading. # respond with the labels, arranged in the requested order
Result string: R, Q, P
(R: 760 nM, Q: 154 nM, P: 88 nM)

---

- SYSTEM: human mAChR M4 (Homo sapiens, UniProt P08173)
- Construct: expressed in transfected cells
- ASSAY_DETAILS: mAChR M4 cell-based functional assay (calcium mobilization, CHO-K1 hM4-Gqi5 cells)
- PARTICULARS: CHO-K1, % ACh maximum at 30 μM; human M4
OBSERVABLE: Emax at 30 µM (%)

>  <COMPOUND>
Cc1cc(C(=O)NCc2ccccc2)cnc1N1CCc2ncccc2C1 [compound 70]

>  <UNIT_TEXT>
%

>  <Emax at 30 µM>
80

$$$$
>  <COMPOUND>
CCOc1nc(N2CCc3ncc(C(F)(F)F)cc3C2)c(C)cc1C#N [Example 373]

>  <UNIT_TEXT>
%

>  <Emax at 30 µM>
64

$$$$
>  <COMPOUND>
[2H]C1([2H])Cc2ncc(-c3ccnn3C)cc2C([2H])([2H])N1c1nnc(C#N)cc1C [Example 617]

>  <UNIT_TEXT>
%

>  <Emax at 30 µM>
88

$$$$
>  <COMPOUND>
Cc1nc(Cl)c(C)c(N2CCc3ncc(-c4ccc(F)nc4)cc3C2)n1 [compound 224]

>  <UNIT_TEXT>
%

>  <Emax at 30 µM>
82

$$$$
>  <COMPOUND>
Cc1cc(C#N)nnc1N1CCc2ncc(CC(F)(F)F)cc2C1 [Example 422]

>  <UNIT_TEXT>
%

>  <Emax at 30 µM>
94

$$$$
>  <COMPOUND>
FC(F)(F)c1cnc2c(c1)CN(c1nc(Cl)nc3c1CCC3)CC2 [compound 259]

>  <UNIT_TEXT>
%

>  <Emax at 30 µM>
91

$$$$

---

- SYSTEM: human mAChR M4 (Homo sapiens)
- Construct: expressed in transfected cells
- ASSAY_DETAILS: mAChR M4 cell-based functional assay (calcium mobilization, CHO-K1 hM4-Gqi5 cells)
- PARTICULARS: CHO-K1, % ACh maximum at 30 μM; human M4
OBSERVABLE: Emax at 30 µM (%)

>  <MOLECULE>
Cc1nc2c(c(N3CCc4ncc(C(F)(F)F)cc4C3)n1)CCCC2 [compound 268]

>  <UNIT_TEXT>
%

>  <TEST_RESULT>
68

$$$$
>  <MOLECULE>
Cc1cc(C#N)cnc1N1CCc2ncc(N3CCCc4ncccc43)cc2C1 [Example 362]

>  <UNIT_TEXT>
%

>  <TEST_RESULT>
96

$$$$
>  <MOLECULE>
Cc1cc(C(=O)N2CC(Cl)C2)nnc1N1CCc2ncc(N3CCO[C@H](C)C3)cc2C1 [Example 538]

>  <UNIT_TEXT>
%

>  <TEST_RESULT>
103

$$$$
>  <MOLECULE>
Cc1cc(C(=O)N2CC3(COC3)C2)nnc1N1CCc2ncc(Nc3ccnn3C)cc2C1 [Example 561]

>  <UNIT_TEXT>
%

>  <TEST_RESULT>
82

$$$$
>  <MOLECULE>
Cc1cc(C(=O)N2CC3(COC3)C2)nnc1N1CCc2ncc(-c3ccnn3C)cc2C1 [Example 565]

>  <UNIT_TEXT>
%

>  <TEST_RESULT>
72

$$$$
>  <MOLECULE>
Cc1cc(C(=O)N2CCCC2)nnc1N1CCc2ncc(N3CCCn4nccc43)cc2C1 [Example 488]

>  <UNIT_TEXT>
%

>  <TEST_RESULT>
89

$$$$
>  <MOLECULE>
COCc1nc(Cl)c(C)c(N2CCc3ncc(-c4cn(C)nc4C)cc3C2)n1 [compound 216]

>  <UNIT_TEXT>
%

>  <TEST_RESULT>
94

$$$$
>  <MOLECULE>
Cc1nc(Cl)c(C)c(N2CCc3ncc(-c4c(C)noc4C)cc3C2)n1 [compound 197]

>  <UNIT_TEXT>
%

>  <TEST_RESULT>
92

$$$$
>  <MOLECULE>
Cc1cc(C(=O)N2CCc3cnccc3C2)nnc1N1CCc2ncc(C(F)(F)F)cc2C1 [Example 498]

>  <UNIT_TEXT>
%

>  <TEST_RESULT>
85

$$$$
>  <MOLECULE>
Cc1cc2n(n1)CCCN2c1cnc2c(c1)CN(c1nnc(C#N)cc1C)CC2 [Example 382]

>  <UNIT_TEXT>
%

>  <TEST_RESULT>
98

$$$$
>  <MOLECULE>
Cc1cnccc1CNC(=O)c1cnc(N2CCc3ncc(Nc4ccnn4C)cc3C2)c(C)c1 [Example 474]

>  <UNIT_TEXT>
%

>  <TEST_RESULT>
89

$$$$
>  <MOLECULE>
Cc1cc(C(=O)N2CC(C(C)(C)O)C2)nnc1N1CCc2ncc(N3CCCn4nccc43)cc2C1 [Example 528]

>  <UNIT_TEXT>
%

>  <TEST_RESULT>
102

$$$$
>  <MOLECULE>
[2H]C1([2H])Cc2ncc(Nc3ccccc3F)cc2C([2H])([2H])N1c1ncc(C#N)cc1C [Example 612]

>  <UNIT_TEXT>
%

>  <TEST_RESULT>
91

$$$$
>  <MOLECULE>
Cc1cc(C(=O)Nc2ccncc2)cnc1N1CCc2ncc(-c3cn(C)nc3C)cc2C1 [Example 450]

>  <UNIT_TEXT>
%

>  <TEST_RESULT>
71

$$$$
>  <MOLECULE>
Cc1nc(C)c(C)c(N2CCc3ncc(N4CCCn5nccc54)cc3C2)n1 [compound 244]

>  <UNIT_TEXT>
%

>  <TEST_RESULT>
99

$$$$
>  <MOLECULE>
Cc1c(C#N)nnc(N2CCc3ncc(-c4cnn(CCN(C)C)c4)cc3C2)c1C [Example 324]

>  <UNIT_TEXT>
%

>  <TEST_RESULT>
70

$$$$
>  <MOLECULE>
Cc1cc(C(=O)N2CC(C)(O)C2)nnc1N1CCc2ncc(N3CCO[C@H](C)C3)cc2C1 [Example 540]

>  <UNIT_TEXT>
%

>  <TEST_RESULT>
100

$$$$
>  <MOLECULE>
Cc1cc(C(=O)NCc2cnc3ccccc3c2)cnc1N1CCc2ncc(C(F)(F)F)cc2C1 [Example 446]

>  <UNIT_TEXT>
%

>  <TEST_RESULT>
87

$$$$
>  <MOLECULE>
Cc1cc2n(n1)CCCN2c1cnc2c(c1)CN(c1ncc(C#N)cc1C)CC2 [Example 385]

>  <UNIT_TEXT>
%

>  <TEST_RESULT>
103

$$$$
>  <MOLECULE>
Cc1c(C#N)nnc(N2Cc3cc(C(F)(F)F)cnc3C(C)C2)c1C (stereo not drawn) [Example 348]

>  <UNIT_TEXT>
%

>  <TEST_RESULT>
70

$$$$
>  <MOLECULE>
Cc1cc(C(=O)Nc2ccncc2)cnc1N1CCc2ncc(C(F)(F)F)cc2C1 [Example 442]

>  <UNIT_TEXT>
%

>  <TEST_RESULT>
96

$$$$
